Provenance of the data: the supplement of paper PMC9233669

# System: biotinyl-Val-oxazolone
# assay_text: self-aminoacylation, catalytic enhancement (BVO) (fold over background); higher = more active; k-Seq, kA / k0A0; sequences stand for … in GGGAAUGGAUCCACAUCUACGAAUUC…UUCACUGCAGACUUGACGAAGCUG
Variants at the floor of the assay were thinned out.
For each entry below, report its self-aminoacylation value.
Answers are plain numbers.

Worked examples follow.
sequence_text	self-aminoacylation
AUUAACCGGGUCAUCGAGUGA [Fam2.1 aminoacylation ribozyme variant]	3.29
AUUUACCUCGGUCAUCGGGUG [Fam2.2 aminoacylation ribozyme variant]	4.9
AUUCACCUCGGUUAUCGGGUG [Fam2.2 aminoacylation ribozyme variant]	4.58
AUUCACCAAGGUCAUCCGGUG [Fam2.2 aminoacylation ribozyme variant]	4.96
AUUCACUUAGGGCAUCGGGUG [Fam2.2 aminoacylation ribozyme variant]	2.72

Provide self-aminoacylation for all items below, preserving their order.
1. AUUAUCCUGGUCAUCAAGUGA [Fam2.1 aminoacylation ribozyme variant]
2. AAGUUUUCUAAUAGUCGGAAG [Fam3.1 aminoacylation ribozyme variant]
3. ACGUUUGCUUAUAGUCGCAAG [Fam3.1 aminoacylation ribozyme variant]
4. CGACACUUCAACCAAUCGGUC [Fam1B.1 aminoacylation ribozyme variant]

**A:**
[2.2, 1.31, 1.46, 1.6]
